# IC50 per record follows
Subject Of Test: PRMT5/MEP50 complex (Homo sapiens (Human), UniProt O14744)
Sequence (O14744 2-637): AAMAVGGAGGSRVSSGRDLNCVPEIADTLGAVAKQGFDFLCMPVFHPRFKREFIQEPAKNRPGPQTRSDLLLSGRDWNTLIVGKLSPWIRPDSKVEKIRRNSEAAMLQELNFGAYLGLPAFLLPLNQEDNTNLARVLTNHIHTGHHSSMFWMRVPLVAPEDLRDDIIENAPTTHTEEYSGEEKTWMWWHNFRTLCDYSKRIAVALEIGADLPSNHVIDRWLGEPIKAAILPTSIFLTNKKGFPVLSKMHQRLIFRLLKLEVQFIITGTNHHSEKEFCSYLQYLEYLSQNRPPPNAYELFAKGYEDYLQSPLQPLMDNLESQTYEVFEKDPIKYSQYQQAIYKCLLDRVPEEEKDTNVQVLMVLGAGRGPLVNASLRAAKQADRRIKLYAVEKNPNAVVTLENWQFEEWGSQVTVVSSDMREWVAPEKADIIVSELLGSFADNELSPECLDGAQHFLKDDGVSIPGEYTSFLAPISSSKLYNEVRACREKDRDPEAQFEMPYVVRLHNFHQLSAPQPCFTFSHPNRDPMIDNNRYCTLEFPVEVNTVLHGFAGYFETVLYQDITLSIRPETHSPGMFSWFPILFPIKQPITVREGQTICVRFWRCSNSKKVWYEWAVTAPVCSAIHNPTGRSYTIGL
Sequence (Q9BQA1 2-342 partner): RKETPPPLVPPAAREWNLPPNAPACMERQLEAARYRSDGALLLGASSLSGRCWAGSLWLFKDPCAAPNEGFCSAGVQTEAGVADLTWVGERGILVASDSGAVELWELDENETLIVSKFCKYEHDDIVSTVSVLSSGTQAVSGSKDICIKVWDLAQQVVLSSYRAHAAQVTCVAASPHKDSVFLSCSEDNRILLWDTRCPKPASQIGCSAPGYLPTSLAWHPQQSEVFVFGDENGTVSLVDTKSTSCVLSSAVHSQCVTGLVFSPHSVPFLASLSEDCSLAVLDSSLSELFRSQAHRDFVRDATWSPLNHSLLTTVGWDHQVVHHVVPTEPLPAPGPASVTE
Assay Explanation: PRMT5:MEP50 HotSpot Assay (full-length histone H2A substrate, plus and minus MTA)
Assay type: biochemical
Protocol Conditions: IC50 + 2 μM MTA, in the presence of 2 μM MTA
Experimental: The PRMT5 inhibitory activity of compounds of the present invention was determined using either a PRMT5:MEP50 FlashPlate Assay (Reaction Biology Corporation) or a PRMT5:MEP50 HotSpot Assay (Reaction Biology Corporation). The assay uses recombinant full-length histone H2A as the PRMT5 substrate. […] The reaction was stopped and transferred to filter paper for detection. The amount of tritiated H2A in each sample was determined using a scintillation counter.
// note: answer is a bare numeric in nM

                                        mol  endpoint_value
0  Cn1ncc(-c2ccc3c(=O)[nH]nc(CN)c3c2)c1-c1ccccc1F             881

Exercise: // IC50 lookup, key: Cn1ncc(-c2ccc3c(=O)[nH]nc(CN)c3c2)c1-c1ccc2ccccc2c1
Solution: 1230

Exercise: // IC50 lookup, key: Cn1ncc(-c2ccc3c(=O)[nH]nc(CN)c3c2)c1-c1cccc(OC2CC2)c1C#N
Solution: 1120

Exercise: // IC50 lookup, key: CCOc1cccc(-c2c(-c3cc(Cl)c4c(=O)[nH]nc(CN)c4c3)cnn2C)c1C#N
Solution: 1150

Exercise: // IC50 lookup, key: CCCc1cccc(-c2c(-c3ccc4c(=O)[nH]nc(CN)c4c3)cnn2C)c1C#N
Solution: 656

Exercise: // IC50 lookup, key: Cc1ccc(C#N)c(-c2c(-c3ccc4c(=O)[nH]nc(CN)c4c3)cnn2C)c1
Solution: 1000
